Form field: TGI (one value per entry).
- Tested on: HOP-62 NSCLC
- testSummary: NCI tumour cell line growth inhibition, 48 h
Value expressed in µM; do not type the unit.

Some solved cases for reference:
> print(dat)
                                   compound  metric  valuereported
1  CCN(CC)c1ccc(Cl)c2c1C(O)(C(C)C)C2(C)C (stereo not given)     TGI             39
2          COc1cc(Nc2cc(Cl)cc(Cl)c2)nc(N)n1     TGI           36.6

Value of measured TGI for the entry O=[N+]([O-])c1ccc2c3c1[C@@H]1O[C@@H]1c1cccc(c1-3)[C@@H]1O[C@H]21 : 34.4
